procedureText: The drug is tested on Z-002 corresponding to rabbit gut metagenome with ENA study accession number: PRJEB37062 and ENA sample accession number: ERS12561802 for biotransformation under anaerobic condition. The drug concentrations were measured over 9 timepoints collected between 0 and 24 hours of incubation by liquid-chromatography-coupled mass spectrometry (LC–MS); note: call rule not given here
conditionNotes: 2 µM
measuredEndpoint: Bacterial Biotransformation

Below are worked cases with known answers.
compound=CNC(=C[N+](=O)[O-])NCCSCc1csc(CN(C)C)n1 measuredresult="Compound NOT metabolized"
compound=CN(C)CCC=C1c2ccccc2C=Cc2ccccc21 measuredresult="Compound metabolized"
compound="OC(CCN1CCCCC1)(c1ccccc1)C1CCCCC1 (configuration not stated)" measuredresult="Compound metabolized"
compound="CC(CN1c2ccccc2Sc2ccccc21)N(C)C (configuration not stated)" measuredresult="Compound NOT metabolized"

Prompt: What measured Bacterial Biotransformation goes with `COc1cc2c(c(OC)c1OC)-c1ccc(OC)c(=O)cc1[C@@H](NC(C)=O)CC2` ?
Response: Compound metabolized

Prompt: Next up: CS(=O)(=O)O.OC(CCN1CCCCC1)(c1ccccc1)c1ccccc1 [PRIDINOL METHANESULFONATE]
Response: Compound metabolized

Prompt: Further, for `CC(C)c1nc(CN(C)C(=O)N[C@H](C(=O)N[C@@H](Cc2ccccc2)C[C@H](O)[C@H](Cc2ccccc2)NC(=O)OCc2cncs2)C(C)C)cs1` ?
Response: Compound metabolized

Prompt: Further, for Cc1ccccc1N1C(=O)c2cc(S(N)(=O)=O)c(Cl)cc2NC1C (configuration not stated) ?
Response: Compound NOT metabolized

Prompt: Same question, CC(C)(C(=O)O)c1ccc(C(O)CCCN2CCC(C(O)(c3ccccc3)c3ccccc3)CC2)cc1 (configuration not stated) [FEXOFENADINE] this time
Response: Compound metabolized

Prompt: // repeat for COc1cc2nc(N(C)CCCNC(=O)C3CCCO3)nc(N)c2cc1OC (configuration not stated) and report
Response: Compound metabolized

---

procedureText: The drug is tested on Z-013 corresponding to rabbit gut metagenome with ENA study accession number: PRJEB37062 and ENA sample accession number: ERS12561813 for biotransformation under anaerobic condition. The drug concentrations were measured over 9 timepoints collected between 0 and 24 hours of incubation by liquid-chromatography-coupled mass spectrometry (LC–MS)
conditionNotes: 2 µM
measuredEndpoint: Bacterial Biotransformation

compound=Cc1cc2c(cc1S(N)(=O)=O)S(=O)(=O)CCC2 measuredendpoint="Bacterial Biotransformation" measuredresult="Compound NOT metabolized"
compound="CCCc1nn(C)c2c(=O)[nH]c(-c3cc(S(=O)(=O)N4CCN(C)CC4)ccc3OCC)nc12.O=C(O)CC(O)(CC(=O)O)C(=O)O [SILDENAFIL CITRATE]" measuredendpoint="Bacterial Biotransformation" measuredresult="Compound NOT metabolized"
compound="CN(C)CC(c1ccc(O)cc1)C1(O)CCCCC1.O=C(O)CCC(=O)O (centres undefined) [DESVENLAFAXINE SUCCINATE]" measuredendpoint="Bacterial Biotransformation" measuredresult="Compound NOT metabolized"

---

conditionNotes: human gut metagenome, 24 h, 2 µM
measuredEndpoint: Bacterial Biotransformation

Some compounds with recorded Bacterial Biotransformation:
compound=C[C@@H]1C[C@H]2[C@@H]3CCC4=CC(=O)C=C[C@]4(C)[C@@]3(F)[C@@H](O)C[C@]2(C)[C@@]1(O)C(=O)CO measuredresult="Compound NOT metabolized"
compound="CC(C)(C(=O)O)c1ccc(C(O)CCCN2CCC(C(O)(c3ccccc3)c3ccccc3)CC2)cc1 (stereo unspecified) [FEXOFENADINE]" measuredresult="Compound NOT metabolized"
compound="COC(=O)C1=C(C)NC(C)=C(C(=O)OC(C)C)C1c1cccc2nonc12 (stereo unspecified)" measuredresult="Compound NOT metabolized"
compound="CC(C)(C)NC[C@H](O)COc1ccccc1C1CCCC1.CC(C)(C)NC[C@H](O)COc1ccccc1C1CCCC1.O=S(=O)(O)O [PENBUTOLOL SULFATE]" measuredresult="Compound metabolized"
compound="Cc1ccc(S(=O)(=O)NC(=O)NN2CC3CCCC3C2)cc1 (stereo unspecified) [GLICLAZIDE]" measuredresult="Compound metabolized"
compound="CC(C)OC(=O)C(C)(C)Oc1ccc(C(=O)c2ccc(Cl)cc2)cc1 [FENOFIBRATE]" measuredresult="Compound metabolized"

Prompt: Give its Bacterial Biotransformation value. Item: `CC(=O)OCC(=O)[C@@]12N=C(C)O[C@@H]1C[C@H]1[C@@H]3CCC4=CC(=O)C=C[C@]4(C)[C@H]3[C@@H](O)C[C@@]12C`
Response: Compound metabolized

Prompt: Entry to check: `CC(C)(C#N)c1cc(Cn2cncn2)cc(C(C)(C)C#N)c1`
Response: Compound NOT metabolized

Prompt: Next record, please: `OC(Cn1cncn1)(Cn1cncn1)c1ccc(F)cc1F`
Response: Compound NOT metabolized

Prompt: Try this compound next: CC(C)NCC(O)COc1ccc(COCCOC(C)C)cc1.CC(C)NCC(O)COc1ccc(COCCOC(C)C)cc1.O=C(O)/C=C/C(=O)O (stereo unspecified) [BISOPROLOL FUMARATE]
Response: Compound NOT metabolized

Prompt: Query CC(CN(C)C)CN1c2ccccc2CCc2ccccc21.O=C(O)/C=C\C(=O)O (stereo unspecified) [TRIMIPRAMINE MALEATE] next
Response: Compound metabolized

Prompt: And then CCCCCCOC(=O)/N=C(/N)c1ccc(NCc2nc3cc(C(=O)N(CCC(=O)OCC)c4ccccn4)ccc3n2C)cc1.CS(=O)(=O)O [DABIGATRAN ETEXILATE MESYLATE] , what is it?
Response: Compound NOT metabolized

Prompt: Query `Nc1c2c(nc3ccccc13)CCCC2` next
Response: Compound NOT metabolized

Prompt: // same read-out, input: O=C(O)COCCN1CCN(C(c2ccccc2)c2ccc(Cl)cc2)CC1 (stereo unspecified)
Response: Compound metabolized

Prompt: Please do the same for `Cc1nc2n(c(=O)c1CCN1CCC(c3noc4cc(F)ccc34)CC1)CCCC2` as well.
Response: Compound metabolized

Prompt: Same again, this time with Cc1ccc(S(=O)(=O)NC(=O)NN2CCCCCC2)cc1 [TOLAZAMIDE]
Response: Compound NOT metabolized
